Field: Kb. Provide a value for each of the compounds that follow.
Molecular target: GPR17 (Homo sapiens)
Sequence (Q13304 29-367 limits assumed): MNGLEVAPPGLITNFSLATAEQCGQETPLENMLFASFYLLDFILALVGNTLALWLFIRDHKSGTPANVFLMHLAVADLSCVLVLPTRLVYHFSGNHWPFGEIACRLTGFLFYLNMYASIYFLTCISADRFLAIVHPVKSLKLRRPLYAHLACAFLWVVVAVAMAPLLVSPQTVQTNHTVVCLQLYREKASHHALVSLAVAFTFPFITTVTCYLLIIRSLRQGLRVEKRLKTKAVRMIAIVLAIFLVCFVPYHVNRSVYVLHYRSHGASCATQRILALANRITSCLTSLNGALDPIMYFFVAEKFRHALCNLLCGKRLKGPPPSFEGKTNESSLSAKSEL
Experiment: cAMP accumulation functional assay (HTRF) in CHO hGPR17 cells
Format: cell-based
Design: host or cells: Flp-In T-REx CHO cells, expression induced with doxycycline
Conditions: Schild analysis against MDL29,951, 5 μM forskolin, activity range, read-out: cAMP assay pA2 (converted)

{"compound": "O=S(=O)(Nc1cc(F)c(Cl)nc1F)c1c[nH]c2cc(Cl)ccc12 [Example I-2]", "test_readout": "Kb", "result": "3.16 to 31.6 nM"}
{"compound": "O=S(=O)(Nc1cnc(Cl)cc1F)c1c[nH]c2cc(Cl)ccc12 [Example I-25]", "test_readout": "Kb", "result": "≤ 3.16 nM"}
{"compound": "COc1ccc(NS(=O)(=O)c2c[nH]c3cc(Cl)ccc23)c(OCC(F)F)n1 [Example I-39]", "test_readout": "Kb", "result": "3.16 to 31.6 nM"}
{"compound": "COc1nc(Br)cnc1NS(=O)(=O)c1c[nH]c2cc(Cl)ccc12 [Example I-10]", "test_readout": "Kb", "result": "≤ 3.16 nM"}

Your task in this section: give Kb for each listed record.
1. O=S(=O)(Nc1cc(F)c(OCC(F)F)nc1F)c1c[nH]c2nc(Cl)ccc12 [Example I-44]
2. COc1nc(OC)c(NS(=O)(=O)c2c[nH]c3cc(Cl)ccc23)cc1F [Example I-6]
3. COc1nc(OCCOC(F)F)c(F)cc1NS(=O)(=O)c1c[nH]c2nc(Cl)ccc12 [Example I-48]
4. COc1nc(OC(F)F)c(F)cc1NS(=O)(=O)c1c[nH]c2c1ccc1cccnc12 [Example I-68]

Result:
31.6 to 316 nM
≤ 3.16 nM
≤ 3.16 nM
≤ 3.16 nM

I'm hoping you can list Kb for every compound here, please.
1. O=S(=O)(Nc1cc(F)c(C2CC2)nc1F)c1c[nH]c2nc(Cl)ccc12 [Example I-47]
2. Cc1nc(F)c(NS(=O)(=O)c2c[nH]c3nc(C(F)F)ccc23)cc1F [Example I-57]
3. COc1nc(C2CC2)c(F)cc1NS(=O)(=O)c1c[nH]c2cc(Cl)ccc12 [Example I-50]

Result:
1. 3.16 to 31.6 nM
2. 3.16 to 31.6 nM
3. ≤ 3.16 nM

// input: 3 compounds below; output: Kb for each
1. O=S(=O)(Nc1cc(F)c(OCC(F)F)nc1F)c1c[nH]c2cc(C(F)F)ccc12 [Example I-52]
2. COc1nc(Cl)cnc1NS(=O)(=O)c1c[nH]c2cc(Cl)ccc12 [Example I-11]
3. COc1nc(Cl)ccc1NS(=O)(=O)c1c[nH]c2nc(Cl)ccc12 [Example I-35]

Result:
3.16 to 31.6 nM
≤ 3.16 nM
31.6 to 316 nM

Could I get Kb for every one of these entries?
1. O=S(=O)(Nc1cnc(Br)cn1)c1c[nH]c2cc(Cl)ccc12 [Example I-18]
2. COc1nc(OCC(F)F)c(F)cc1NS(=O)(=O)c1c[nH]c2nc(Cl)ccc12 [Example I-46]
3. COc1nc(OCCF)c(F)cc1NS(=O)(=O)c1c[nH]c2nc(C(F)F)ccc12 [Example I-55]

Result:
31.6 to 316 nM
≤ 3.16 nM
3.16 to 31.6 nM
